For each entry below, report its IC50 value.
- measurementTarget: Na+-dependent bile acid transport system (Oryctolagus cuniculus)
- Construct: brush-border membrane vesicles from the ileum of rabbits; from tissue; host or cells: terminal ileum of male New Zealand rabbits, brush-border membrane vesicles
- protocolDetails: Inhibition of Na+-dependent [3H]taurocholate absorption into brush-border membrane vesicles of the ileum
- Assay type: biochemical, rabbit
- assayConditions: read-out: IC50
Answer as a quantity: numeral, then unit.

Kindly note the recorded IC50 for C[C@H](CCC(=O)NCCS(=O)(=O)O)[C@H]1CC[C@H]2[C@@H]3[C@H](O)C[C@@H]4C[C@H](O)CC[C@]4(C)[C@H]3CC[C@]12C [Taurochenodeoxycholate, reference compound] , which is 23 µM

Kindly note the recorded IC50 for C[C@H](CCC(=O)NCCS(=O)(=O)O)[C@H]1CC[C@H]2[C@@H]3CC[C@@H]4C[C@H](OS(=O)(=O)O)CC[C@]4(C)[C@H]3CC[C@]12C [Taurolithocholate-3-sulfate, reference compound] , which is 245 µM

Kindly note the recorded IC50 for CC(C)c1nc(-c2ccccc2)cc(-c2ccc(F)cc2)c1/C=C/[C@@H](O)C[C@@H](O)CC(=O)NCCO[C@H]1CC[C@@]2(C)[C@@H](C1)C[C@@H](O)[C@@H]1[C@@H]2C[C@H](O)[C@]2(C)[C@@H]([C@H](C)CCC(=O)O)CC[C@@H]12 [Example 85] , which is 43 µM

Kindly note the recorded IC50 for CC(C)c1cc(-c2ccc(F)cc2)c(OC[C@@H](O)C[C@@H](O)CC(=O)NCCO[C@H]2CC[C@@]3(C)[C@@H](C2)C[C@@H](O)[C@@H]2[C@@H]3C[C@H](O)[C@]3(C)[C@@H]([C@H](C)CCC(=O)NCCS(=O)(=O)O)CC[C@@H]23)c(C(C)C)c1 [Example 111] , which is 24 µM

###

For each entry below, report its IC25 value.
- measurementTarget: Na+-dependent bile acid transport system (Oryctolagus cuniculus, UniProt Q28727)
- Construct: brush-border membrane vesicles from the ileum of rabbits; from tissue; host or cells: terminal ileum of male New Zealand rabbits, brush-border membrane vesicles
- Sequence (Q28727 whole entry): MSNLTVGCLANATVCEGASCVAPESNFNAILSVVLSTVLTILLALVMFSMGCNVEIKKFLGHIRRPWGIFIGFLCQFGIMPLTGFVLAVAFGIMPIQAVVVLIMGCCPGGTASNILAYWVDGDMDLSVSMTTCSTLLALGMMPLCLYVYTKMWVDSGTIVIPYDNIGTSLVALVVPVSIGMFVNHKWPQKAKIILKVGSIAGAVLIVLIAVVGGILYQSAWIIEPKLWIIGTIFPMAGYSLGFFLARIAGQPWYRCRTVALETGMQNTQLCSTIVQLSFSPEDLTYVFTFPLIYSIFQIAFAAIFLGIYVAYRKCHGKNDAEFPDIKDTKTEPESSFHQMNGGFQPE
- protocolDetails: Inhibition of Na+-dependent [3H]taurocholate absorption into brush-border membrane vesicles of the ileum
- Assay type: biochemical, rabbit
Unit µM implied. Number only.

Form field, IC25 with Na+-dependent bile acid transport system (Oryctolagus cuniculus, UniProt Q28727), item Cc1cc(C(=C(/C=C/[C@@H](O)C[C@@H](O)CC(=O)NCCO[C@H]2CC[C@@]3(C)[C@@H](C2)C[C@@H](O)[C@@H]2[C@@H]3C[C@H](O)[C@]3(C)[C@@H]([C@H](C)CCC(=O)O)CC[C@@H]23)C(C)C)c2ccc(F)c(C)c2)ccc1F [Example 90] : 3.8

Form field, IC25 with Na+-dependent bile acid transport system (Oryctolagus cuniculus, UniProt Q28727), item COC(=O)CC[C@@H](C)[C@H]1CC[C@H]2[C@@H]3[C@H](O)C[C@@H]4C[C@@H](OCCNC(=O)[C@@H](C)NC(=O)[C@@H](C)N)CC[C@]4(C)[C@H]3C[C@H](O)[C@]12C [Example 120, H-D-Ala-D-Ala-NH--(CH2)2 --GS--OCH3] : 38

Form field, IC25 with Na+-dependent bile acid transport system (Oryctolagus cuniculus, UniProt Q28727), item COC(=O)CC[C@@H](C)[C@H]1CC[C@H]2[C@@H]3[C@H](O)C[C@@H]4C[C@@H](OCCNC(=O)[C@@H](C)NC(=O)[C@@H](C)NC(=O)OCc5ccccc5)CC[C@]4(C)[C@H]3C[C@H](O)[C@]12C [Example 119, Z-D-Ala-D-Ala-NH--(CH2)2 --GS--OCH3] : 48

Form field, IC25 with Na+-dependent bile acid transport system (Oryctolagus cuniculus, UniProt Q28727), item C[C@H](CCC(=O)O)[C@H]1CC[C@H]2[C@@H]3[C@H](O)C[C@@H]4C[C@@H](OCCNC(=O)[C@@H](C)NC(=O)[C@@H](C)NC(=O)OCc5ccccc5)CC[C@]4(C)[C@H]3C[C@H](O)[C@]12C [Example 122, Z-D-Ala-D-Ala-NH--(CH2)2 --GS--OH] : 19

Form field, IC25 with Na+-dependent bile acid transport system (Oryctolagus cuniculus, UniProt Q28727), item CC(C)c1nc(-c2ccccc2)cc(-c2ccc(F)cc2)c1/C=C/[C@@H](O)C[C@@H](O)CC(=O)NCCCO[C@@H]1CC[C@@]2(C)[C@@H](C1)C[C@@H](O)[C@@H]1[C@@H]2C[C@H](O)[C@]2(C)[C@@H]([C@H](C)CCC(=O)O)CC[C@@H]12 [Example 87] : 16

Form field, IC25 with Na+-dependent bile acid transport system (Oryctolagus cuniculus, UniProt Q28727), item CC(C)c1nc(-c2ccccc2)cc(-c2ccc(F)cc2)c1/C=C/[C@@H]1C[C@@H](O)CC(=O)O1 [Example 125, reference compound] : 12

Form field, IC25 with Na+-dependent bile acid transport system (Oryctolagus cuniculus, UniProt Q28727), item CC(C)c1nc(-c2ccccc2)cc(-c2ccc(F)cc2)c1/C=C/[C@@H](O)C[C@@H](O)CC(=O)NCCO[C@H]1CC[C@@]2(C)[C@@H](C1)C[C@@H](O)[C@@H]1[C@@H]2C[C@H](O)[C@]2(C)[C@@H]([C@H](C)CCC(=O)NCC(=O)O)CC[C@@H]12 [Example 105] : 11

Form field, IC25 with Na+-dependent bile acid transport system (Oryctolagus cuniculus, UniProt Q28727), item CC(C)c1cc(Sc2ccc(F)cc2)cc(-c2ccc(F)cc2)c1OC[C@@H](O)C[C@@H](O)CC(=O)NCCCO[C@H]1CC[C@@]2(C)[C@@H](C1)C[C@@H](O)[C@@H]1[C@@H]2C[C@H](O)[C@]2(C)[C@@H]([C@H](C)CCC(=O)O)CC[C@@H]12 [Example 94] : 4.5

// data source = patent US5462933A
